Recorded Efficacy values for a group of compounds are listed next.
target.or.test.system: Peroxisome proliferator-activated receptor alpha (Homo sapiens) (UniProt Q07869)
assay.overview: Activity at human PPARalpha in CV1 cells by CTF assay relative to 2-(4-{2-[3-(2,4-difluoro-phenyl)-1-heptyl-ureido]-ethyl}-phenoxy)-2-methyl-butyric acid
Format: cell-based
experimental.setup: CV-1
// return numeric value only (unit: %, not printed)

Here is how some compounds turned out for Efficacy.
> print(dat)
                        structure.as.smiles  numeric.readout
1  Cc1oc(-c2ccccc2)nc1CCOc1ccc(CCC(=O)O)c(CNC(=O)OCc2ccccc2)c1               54
2  Cc1oc(-c2ccc(-c3ncccn3)cc2)nc1CCOc1ccc(CCC(=O)O)c(CNC(=O)OC(C)C)c1               37
3  Cc1oc(-c2ccccc2)nc1CCOc1ccc(CCC(=O)O)c(CNC(=O)NCc2ccccc2)c1                5

Now take the following compound into account.
// lookup Efficacy for Cc1oc(-c2ccc(-c3ccccc3)cc2)nc1CCOc1ccc(CCC(=O)O)c(CNC(=O)Oc2cnccn2)c1
68

* * *

Reported EC50 values, Peroxisome proliferator-activated receptor gamma (Homo sapiens).
// return numeric value only (unit: nM, not printed)

Here is how some molecules turned out for EC50.
> print(dat)
                        structure.as.smiles  numeric.readout
1  Cc1sc(N2CCOCC2)nc1CCOc1ccc(CCC(=O)O)c(CNC(=O)OC(C)C)c1               28
2  Cc1oc(-c2ccc(-c3ncccn3)cc2)nc1CCOc1ccc(CCC(=O)O)c(CNC(=O)OC(C)C)c1                4
3  Cc1oc(-c2ccccc2)nc1CCOc1ccc(CCC(=O)O)c(CNC(=O)OCc2ccccc2)c1              115
4  Cc1oc(-c2ccccc2)nc1CCOc1ccc(CCC(=O)O)c(CNC(=O)CCc2ccccc2)c1             1020
5  Cc1oc(-c2ccccc2)nc1CCOc1ccc(CCC(=O)O)c(CNS(=O)(=O)Cc2ccccc2)c1              527
6  Cc1oc(-c2ccc(-c3ccccc3)cc2)nc1CCOc1ccc(CCC(=O)O)c(CNC(=O)OC(C)C)c1               19
7  Cc1oc(-c2ccc(-c3ccccc3)cc2)nc1CCOc1ccc(CCC(=O)O)c(CNC(=O)Oc2cnccn2)c1                2
8  Cc1oc(-c2ccccc2)nc1CCOc1ccc(CCC(=O)O)c(CNC(=O)Oc2cnccn2)c1                7

// lookup EC50 for Cc1oc(-c2ccccc2)nc1CCOc1ccc(CCC(=O)O)c(CNC(=O)NCc2ccccc2)c1
2680

What do you have for Cc1oc(-c2ccc(Oc3ccccc3)cc2)nc1CCOc1ccc(CCC(=O)O)c(CNC(=O)OC(C)C)c1 ?
2

What do you have for Cc1oc(-c2ccccc2)nc1CCOc1ccc(CCC(=O)O)c(CNC(=O)OC(C)C)c1 ?
8

* * *

Recorded pEC50 values for a group of molecules are listed next.
target.or.test.system: Peroxisome proliferator-activated receptor alpha (Homo sapiens, UniProt Q07869)
assay.overview: Activity at human PPARalpha in CV1 cells
Please treat pEC50 as minus the base-10 logarithm of the molar concentration.

> print(dat)
                        structure.as.smiles  numeric.readout
1  Cc1oc(-c2ccc(-c3ncccn3)cc2)nc1CCOc1ccc(CCC(=O)O)c(CNC(=O)OC(C)C)c1             6.05

Now take the following molecule into account.
// lookup pEC50 for Cc1oc(-c2ccccc2)nc1CCOc1ccc(CCC(=O)O)c(CNC(=O)OC(C)C)c1
7.15

* * *

Recorded Efficacy values for a group of molecules are listed next.
target.or.test.system: Peroxisome proliferator-activated receptor alpha (Homo sapiens)
assay.overview: Activity at human PPARalpha in CV1 cells by CTF assay relative to 2-(4-{2-[3-(2,4-difluoro-phenyl)-1-heptyl-ureido]-ethyl}-phenoxy)-2-methyl-butyric acid
Assay type: cell-based
experimental.setup: CV-1

Here is how some molecules turned out for Efficacy.
> print(dat)
                        structure.as.smiles  result
1  Cc1oc(-c2ccccc2)nc1CCOc1ccc(CCC(=O)O)c(CNC(=O)OC(C)C)c1     51%
2  Cc1oc(-c2ccccc2)nc1CCOc1ccc(CCC(=O)O)c(CNC(=O)Oc2cnccn2)c1     60%
3  CC(C)(Oc1ccc(C(=O)c2ccc(Cl)cc2)cc1)C(=O)O     35%

// lookup Efficacy for Cc1oc(-c2ccc(Oc3ccccc3)cc2)nc1CCOc1ccc(CCC(=O)O)c(CNC(=O)OC(C)C)c1
46%

What do you have for Cc1sc(N2CCOCC2)nc1CCOc1ccc(CCC(=O)O)c(CNC(=O)OC(C)C)c1 ?
37%

What do you have for Cc1oc(-c2ccccc2)nc1CCOc1ccc(CCC(=O)O)c(CNS(=O)(=O)Cc2ccccc2)c1 ?
33%

What do you have for Cc1oc(-c2ccccc2)nc1CCOc1ccc(CCC(=O)O)c(CNC(=O)CCc2ccccc2)c1 ?
32%

* * *

Recorded IC50 values for a group of molecules are listed next.
target.or.test.system: Peroxisome proliferator-activated receptor gamma (Homo sapiens, UniProt P37231)
Sequence (P37231 whole entry): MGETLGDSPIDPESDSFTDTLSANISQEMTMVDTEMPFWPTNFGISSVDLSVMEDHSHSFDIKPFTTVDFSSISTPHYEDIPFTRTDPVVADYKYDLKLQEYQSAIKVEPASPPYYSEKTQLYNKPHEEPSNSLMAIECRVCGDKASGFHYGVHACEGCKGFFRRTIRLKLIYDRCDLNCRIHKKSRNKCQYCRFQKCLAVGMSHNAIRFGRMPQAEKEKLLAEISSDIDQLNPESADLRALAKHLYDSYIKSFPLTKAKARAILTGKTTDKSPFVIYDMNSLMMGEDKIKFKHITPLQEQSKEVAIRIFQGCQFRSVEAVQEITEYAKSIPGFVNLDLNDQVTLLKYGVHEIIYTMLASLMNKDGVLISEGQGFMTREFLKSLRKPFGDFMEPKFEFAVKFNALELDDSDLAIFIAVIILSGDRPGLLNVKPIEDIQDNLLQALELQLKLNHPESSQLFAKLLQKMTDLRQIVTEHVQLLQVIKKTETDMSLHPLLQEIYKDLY
// return numeric value only (unit: nM, not printed)

Here is how some molecules turned out for IC50.
> print(dat)
                        structure.as.smiles  numeric.readout
1  Cc1sc(N2CCOCC2)nc1CCOc1ccc(CCC(=O)O)c(CNC(=O)OC(C)C)c1               22
2  Cc1oc(-c2ccccc2)nc1CCOc1ccc(CCC(=O)O)c(CNC(=O)CCc2ccccc2)c1              161
3  Cc1oc(-c2ccccc2)nc1CCOc1ccc(CCC(=O)O)c(CNC(=O)NCc2ccccc2)c1              706
4  Cc1oc(-c2ccc(-c3ccccc3)cc2)nc1CCOc1ccc(CCC(=O)O)c(CNC(=O)OC(C)C)c1               47

Now take the following molecule into account.
// lookup IC50 for Cc1oc(-c2ccccc2)nc1CCOc1ccc(CCC(=O)O)c(CNS(=O)(=O)Cc2ccccc2)c1
72

* * *

Recorded pIC50 values for a group of compounds are listed next.
target.or.test.system: Peroxisome proliferator-activated receptor alpha (Homo sapiens)
Sequence (Q07869 whole entry): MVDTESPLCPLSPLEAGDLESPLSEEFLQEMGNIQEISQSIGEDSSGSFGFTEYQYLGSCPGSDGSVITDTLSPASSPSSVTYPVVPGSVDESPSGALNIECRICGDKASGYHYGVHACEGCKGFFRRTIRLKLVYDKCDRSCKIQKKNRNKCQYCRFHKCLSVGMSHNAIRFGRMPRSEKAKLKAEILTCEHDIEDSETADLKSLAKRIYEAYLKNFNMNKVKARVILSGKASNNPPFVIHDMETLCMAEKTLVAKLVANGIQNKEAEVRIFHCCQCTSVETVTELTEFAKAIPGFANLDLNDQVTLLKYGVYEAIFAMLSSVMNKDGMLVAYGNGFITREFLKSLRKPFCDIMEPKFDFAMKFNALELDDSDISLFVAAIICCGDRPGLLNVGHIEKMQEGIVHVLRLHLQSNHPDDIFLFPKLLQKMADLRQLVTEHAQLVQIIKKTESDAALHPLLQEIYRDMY
assay.overview: Displacement of [3H]2-(4-{2-[3-(2,4-difluoro-phenyl)-1-heptyl-ureido]-ethyl}-phenoxy)-2-methyl-butyric acid from hPPARalpha
pIC50: −log10 of the molar value.

> print(dat)
                        structure.as.smiles  result
1  Cc1oc(-c2ccc(-c3ccccc3)cc2)nc1CCOc1ccc(CCC(=O)O)c(CNC(=O)Oc2cnccn2)c1    6.35
2  CC(C)(Oc1ccc(C(=O)c2ccc(Cl)cc2)cc1)C(=O)O  < 5.00

// lookup pIC50 for Cc1oc(-c2ccccc2)nc1CCOc1ccc(CCC(=O)O)c(CNC(=O)NCc2ccccc2)c1
< 5.00

Reference for the values: ChEMBL document CHEMBL1146164
